These entries and their values trace back to patent US12390483B2.

# procedure_details: Pharmacokinetics of MRS4322 following intravenous administration to neonatal pigs
# Type: in vivo
# particulars: female, pig, plasma, iv, 0.2 mg/kg, neonatal pig plasma, 0.2 mg/kg IV, individual animals; read-out: C0
test_readout: C0 (ng/mL)
One number for each entry, in ng/mL.

Exercise: Would you mind telling me what C0 value was observed for CSc1nc(N)c2ncn([C@H]3[C@H](O)[C@H](O)[C@]4(CO)C[C@H]34)c2n1 [MRS4322] ?
Key: 266
